Where these numbers come from: patent US8207330B2

# assay_summary: Two-photon absorption cross-sectional area, Z scan method, Examples B
# Format: physicochemical
# applied_conditions: tetrahydrofuran solution, femtosecond laser, 780 nm to 960 nm (710 nm to 990 nm)
endpoint_label: Two-photon absorption cross-sectional area (GM)
Express your answer in GM, writing the number without its unit.

See these solved cases before continuing.
INSERT INTO assay_data (compound, measured) VALUES
  ('CCC1=C(CC)c2nc1c(Br)c1[nH]c(c(CC)c1CC)c(-c1ccc([N+](=O)[O-])cc1)c1nc(c(-c3ccc4c(c3)C(C)(C)c3cc(-c5c6nc(c(-c7ccc([N+](=O)[O-])cc7)c7[nH]c(c(Br)c8nc(c(-c9ccc([N+](=O)[O-])cc9)c9[nH]c5c(CC)c9CC)C(CC)=C8CC)c(CC)c7CC)C(CC)=C6CC)ccc3-4)c3[nH]c(c(CC)c3CC)c2-c2ccc([N+](=O)[O-])cc2)C(CC)=C1CC [(27)]', 810),
  ('CCCCCCc1ccc(N(c2ccc(C3=C4N=C(C(C)=C4CC)C(c4c(C)cc(C)cc4C)=c4c(C)c(CC)c5[n]4[Co][n]4c(c(C)c(CC)c43)C(c3c(C)cc(C)cc3C)=C3N=C(C=5)C(CC)=C3C)cc2)c2ccc(C3=c4c(CC)c(C)c5[n]4[Co][n]4c(c(CC)c(C)c4C(c4c(C)cc(C)cc4C)=C4N=C3C(CC)=C4C)C=C3N=C(C(C)=C3CC)C=5c3c(C)cc(C)cc3C)cc2)cc1 [(65)]', 810),
  ('CCC1=C(C)C2=C(c3cc(OC)c(OC)c(OC)c3)c3c(C)c(CC)c4[n]3[Cu][n]3c(c(C)c(CC)c3=C(c3ccc(/C=C/c5ccc(N(c6ccc(C)cc6)c6ccc(C)cc6)cc5)cc3)C1=N2)=C(c1cc(OC)c(OC)c(OC)c1)C1=NC(=C4c2ccc(/C=C/c3ccc(N(c4ccc(C)cc4)c4ccc(C)cc4)cc3)cc2)C(CC)=C1C [(62)]', 840);

### Prompt # query: Two-photon absorption cross-sectional area of entry CCC1=C(C)c2cc3[nH]c(c(CC)c3C)c(-c3ccc(N(c4ccccc4)c4ccc(-c5c6nc(cc7[nH]c(cc8nc(c(-c9ccc(-c%10ccccn%10)nc9)c9[nH]c5c(CC)c9C)C(C)=C8CC)c(CC)c7C)C(C)=C6CC)cc4)cc3)c3nc(c(-c4ccc(-c5ccccn5)nc4)c4[nH]c(cc1n2)c(CC)c4C)C(C)=C3CC [(55)]
### Response 850
